study system: UniProt:P11712
Sequence (P11712 whole entry): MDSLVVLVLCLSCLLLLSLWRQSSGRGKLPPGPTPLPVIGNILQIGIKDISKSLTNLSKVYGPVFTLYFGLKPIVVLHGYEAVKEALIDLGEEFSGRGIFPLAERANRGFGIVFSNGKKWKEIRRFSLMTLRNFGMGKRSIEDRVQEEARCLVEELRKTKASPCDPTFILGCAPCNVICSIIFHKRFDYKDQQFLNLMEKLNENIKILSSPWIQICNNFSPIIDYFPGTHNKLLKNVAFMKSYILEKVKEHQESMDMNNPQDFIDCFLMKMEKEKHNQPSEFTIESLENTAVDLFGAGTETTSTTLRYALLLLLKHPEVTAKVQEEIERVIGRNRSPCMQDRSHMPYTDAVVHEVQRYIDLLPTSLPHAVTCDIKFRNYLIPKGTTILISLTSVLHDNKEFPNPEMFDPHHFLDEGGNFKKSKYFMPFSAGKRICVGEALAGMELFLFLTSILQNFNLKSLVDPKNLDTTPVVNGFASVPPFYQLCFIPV
I'd appreciate it if you could supply AC50 values for the items below.

Examples with their reported AC50 follow.
molecule	obs value
Cc1cccc(N(NC(=O)C(C)(C)O)C(=O)c2ccccc2)c1	39.8 µM (inconclusive)
Cc1ccc(NC(=O)c2cc(NC(=O)CCCC(=O)O)ccc2Cl)cc1Cl	15.8 µM (inconclusive)
Cc1ccc(NC(=O)CN2C(=O)N/C(=C/c3ccc(C)o3)C2=O)cc1	14.1 µM (inconclusive)

Below are some molecules; for each one, tell me its AC50.
1. CC#CCCCC(=O)Nc1ccc(C(=O)O)cc1
2. Cn1nc(-c2ccccc2)c(C(=O)Nc2ccc(Cl)cc2)c1Cl

1. 39.8 µM (inconclusive)
2. 0.141 µM (inconclusive)

Required: AC50, one value per molecule below.
1. CCCC[C@@H]1C[C@H]1C(NC(=O)Cc1ccccc1)c1ccc(Cl)cc1 (stereo partly specified)
2. C[C@H](N)C(=O)OC(C)(C)Cc1ccc(Cl)cc1 [(S)-ALAPROCLATE]
3. CC(C)[C@H](N)c1nnc(SC/C=C/c2ccccc2)o1
4. Cc1cc(C)nc(SCc2nnc(SCC(N)=O)n2Cc2ccco2)n1
5. Cc1c(C(=O)N2CCCCCC2)nnn1-c1nonc1N
6. CCC(CC)C(=O)Nc1cccc(C(=O)Nc2ccc(OC)cc2[N+](=O)[O-])c1

1.26 µM (inconclusive)
39.8 µM (inconclusive)
0.0562 µM (inconclusive)
3.55 µM (inconclusive)
14.1 µM (inconclusive)
0.891 µM (inconclusive)

====

measurement description: CRF-BP/CRF-R2 complex antagonists, dose response, cell-based, uHTS hits, 384-well (AID 651639)
Type: functional, Homo sapiens
condition label: read-out: IC50_Mean
The source made the active and inactive calls.
# valid calls are yes (1) for active, no (0) for inactive; nothing else

# count of solved cases: 4
chem smiles	discrete label
Cc1cc([N+](=O)[O-])ccc1NC1CCCC1	yes (1)
CCOC(=O)Cc1csc(NC(=S)NC(=O)c2ccc([N+](=O)[O-])cc2)n1	no (0)
CSc1nc(C)c(C(=O)C[n+]2ccccc2C)cc1C#N	no (0)
Nc1nnc(SCc2cc3c(cc2Cl)OCO3)s1	no (0)

Shift focus to the following entry.
Please state the recorded outcome for this compound: "COc1ccccc1CCNC(=O)CCn1nc(C)c2c(C)n(-c3ccccc3)nc2c1=O"
no (0)

====

study system: Cytochrome P450 3A4 (Homo sapiens, UniProt P08684);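 note: confirmatory qHTS run detecting inhibitors and substrates of CYP3A4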
Sequence (P08684 whole entry): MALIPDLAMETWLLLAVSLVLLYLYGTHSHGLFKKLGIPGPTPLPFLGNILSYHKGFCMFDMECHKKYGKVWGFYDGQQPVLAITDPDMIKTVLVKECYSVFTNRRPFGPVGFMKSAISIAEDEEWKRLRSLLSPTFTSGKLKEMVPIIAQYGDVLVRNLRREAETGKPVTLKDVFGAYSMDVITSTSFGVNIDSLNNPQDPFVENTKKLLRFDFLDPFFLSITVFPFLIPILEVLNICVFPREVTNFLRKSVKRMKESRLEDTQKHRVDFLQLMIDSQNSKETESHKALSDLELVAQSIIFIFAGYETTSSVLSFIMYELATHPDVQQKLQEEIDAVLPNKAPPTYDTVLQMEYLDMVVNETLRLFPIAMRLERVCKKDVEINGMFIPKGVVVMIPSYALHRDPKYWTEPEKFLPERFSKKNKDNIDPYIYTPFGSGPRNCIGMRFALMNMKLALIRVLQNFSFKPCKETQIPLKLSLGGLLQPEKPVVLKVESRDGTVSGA
condition label: Potency
Consider the following compounds; for each one, report its AC50.

Some compounds with known AC50 results, for comparison:
compound	AC50
Cc1c(O)c(O)cc2c1oc1c3ccccc3oc(=O)c21	20 µM (inconclusive)
COc1ccc(-c2coc3ccc(OC4OC(COC(C)=O)C(OC(C)=O)C(OC(C)=O)C4OC(C)=O)c(OC(C)=O)c3c2=O)cc1 (stereo not given)	15.8 µM (inconclusive)
C=C(CC(=O)OC)C[C@]1(CC(=O)OC)CC2(CC=C(C)C)C(=O)C(C(=O)c3ccccc3)=C(OC(=O)c3ccc(Br)cc3)C(CC=C(C)C)(C1)C2=O (stereo not given in full)	3.16 µM (inconclusive)
S=C([S-])NCCNC(=S)[S-].[Zn+2]	25.1 µM (inconclusive)

Here is another compound to look at.
So what does the record say about AC50 for "CCCn1c(C)nc2c(N3CCOCC3)nc(C)nc21" ?
7.94 µM (inconclusive)

====

So I've got a bunch of molecules here, and I need their AC50 values.
study system: Paired box protein Pax-8 (Homo sapiens, UniProt Q06710)
Sequence (Q06710 whole entry): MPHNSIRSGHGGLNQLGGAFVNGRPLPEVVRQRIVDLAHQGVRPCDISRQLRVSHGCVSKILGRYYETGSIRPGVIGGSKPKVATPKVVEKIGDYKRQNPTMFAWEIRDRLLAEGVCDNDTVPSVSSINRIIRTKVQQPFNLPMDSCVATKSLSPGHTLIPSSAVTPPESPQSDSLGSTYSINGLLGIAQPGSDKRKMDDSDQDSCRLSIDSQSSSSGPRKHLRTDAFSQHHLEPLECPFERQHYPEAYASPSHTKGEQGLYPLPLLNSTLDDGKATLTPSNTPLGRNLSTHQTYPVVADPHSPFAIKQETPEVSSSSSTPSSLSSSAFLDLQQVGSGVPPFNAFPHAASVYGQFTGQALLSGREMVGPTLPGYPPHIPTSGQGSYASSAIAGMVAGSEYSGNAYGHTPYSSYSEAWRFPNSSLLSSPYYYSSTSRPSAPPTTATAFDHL
measurement description: inhibitors of PAX8-driven TPO luciferase reporter, dose response, RMG-I cells, cherry-pick (AID 687027);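 note: luciferase reporter driven by Pax8 target thyroperoxidase promoter measured by SteadyGlo luminescence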
Format: functional, cell-based
Activity calls are given as the source filed them.

A selection of reference data follows.
molecule	study system	obs value
CS(=O)(=O)N1CC(=O)N2[C@H](CO)[C@H](c3ccc(C#CCC4CCCC4)cc3)[C@H]2C1	Paired box protein Pax-8 (Homo sapiens, UniProt Q06710)	5.98 µM (active)
C[C@@H]1CN([C@@H](C)CO)C(=O)Cc2cc(NC(=O)Nc3ccc(C(F)(F)F)cc3)ccc2O[C@H]1CN(C)Cc1ccc(Oc2ccccc2)cc1	Paired box protein Pax-8 (Homo sapiens, UniProt Q06710)	10.3 µM (active)
COc1ccc(S(=O)(=O)N(C)C[C@H]2Oc3ccc(NC(=O)Nc4ccc(C(F)(F)F)cc4)cc3C(=O)N([C@H](C)CO)C[C@@H]2C)cc1	Paired box protein Pax-8 (Homo sapiens, UniProt Q06710)	8.69 µM (active)
O=S(=O)(c1ccc2c(c1)C(=NO)c1cc(S(=O)(=O)N3CCCCC3)ccc1-2)N1CCCCC1	Paired box protein Pax-8 (Homo sapiens, UniProt Q06710)	0.871 µM (active)
C[C@@H]1CN([C@H](C)CO)C(=O)c2cc(NC(=O)c3ccccc3)ccc2O[C@@H](C)CCCCO[C@@H]1CN(C)Cc1ccc(C(F)(F)F)cc1	Paired box protein Pax-8 (Homo sapiens, UniProt Q06710)	8.24 µM (active)

// each molecule listed below needs its AC50
1. CCc1ccc(CNC(=O)C2CCCN(c3nnc(C)c4c(C)n(-c5ccccc5)nc34)C2)cc1 (centres undefined)
2. C[C@@H]1CCCCO[C@@H](CN(C)Cc2ccc(Cl)c(Cl)c2)[C@H](C)CN([C@H](C)CO)C(=O)c2cc(NC(=O)Nc3ccccc3)ccc2O1

9.17 µM (active)
12.5 µM (active)

====

study system: Aminopeptidase N (Plasmodium falciparum FcB1/Columbia, UniProt O96935)
Sequence (O96935 whole entry): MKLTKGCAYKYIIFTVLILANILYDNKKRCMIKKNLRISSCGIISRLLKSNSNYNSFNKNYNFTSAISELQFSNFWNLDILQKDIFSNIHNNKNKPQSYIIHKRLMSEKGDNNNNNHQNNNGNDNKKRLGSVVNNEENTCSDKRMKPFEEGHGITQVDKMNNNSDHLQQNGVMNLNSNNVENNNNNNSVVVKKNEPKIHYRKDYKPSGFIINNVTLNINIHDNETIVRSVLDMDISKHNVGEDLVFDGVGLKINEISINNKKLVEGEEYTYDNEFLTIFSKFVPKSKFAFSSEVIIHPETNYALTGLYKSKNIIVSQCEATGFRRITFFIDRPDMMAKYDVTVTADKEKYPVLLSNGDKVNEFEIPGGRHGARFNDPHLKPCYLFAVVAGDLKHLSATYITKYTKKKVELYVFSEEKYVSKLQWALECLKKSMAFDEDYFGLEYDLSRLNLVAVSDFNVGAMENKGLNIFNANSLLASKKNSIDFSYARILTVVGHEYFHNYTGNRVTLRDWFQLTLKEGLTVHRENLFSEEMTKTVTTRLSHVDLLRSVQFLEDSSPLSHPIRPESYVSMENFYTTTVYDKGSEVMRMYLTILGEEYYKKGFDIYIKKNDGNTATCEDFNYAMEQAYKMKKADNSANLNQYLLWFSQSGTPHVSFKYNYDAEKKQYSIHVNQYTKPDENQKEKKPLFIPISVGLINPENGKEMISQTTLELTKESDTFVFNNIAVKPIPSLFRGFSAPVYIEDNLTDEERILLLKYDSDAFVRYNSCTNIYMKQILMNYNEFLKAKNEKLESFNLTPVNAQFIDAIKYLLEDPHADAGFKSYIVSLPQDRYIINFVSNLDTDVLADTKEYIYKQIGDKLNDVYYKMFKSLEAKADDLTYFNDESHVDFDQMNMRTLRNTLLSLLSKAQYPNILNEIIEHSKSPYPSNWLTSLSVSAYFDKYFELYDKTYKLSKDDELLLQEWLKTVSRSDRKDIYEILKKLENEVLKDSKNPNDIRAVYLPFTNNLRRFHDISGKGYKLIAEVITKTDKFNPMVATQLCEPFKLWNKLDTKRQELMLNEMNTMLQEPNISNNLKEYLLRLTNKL
measurement description: P. falciparum M1AAP inhibitors, biochemical, fluorogenic H-Leu-NHMec substrate, 1536-well (AID 1445)
Design: species or system Plasmodium falciparum 3D7, 3D7
Calls of active or inactive are those of the source.
recorded metric: IC50

Some solved entries appear below for comparison.
molecule	recorded metric	obs value
Cc1nnc(NC(=O)c2ccc3ccccc3n2)s1	IC50	36.8 µM (active)
O=C(CN1C(=O)C2C3CC(C(Br)C3Br)C2C1=O)Nc1ccc(C(=O)O)cc1 (configuration not stated)	IC50	62.5 µM (active)
CC(=O)Nc1ccc(S(=O)(=O)Nc2nc3ccccc3nc2Nc2ccccc2)cc1	IC50	94.9 µM (active)
Cc1c(Cc2ccccc2)c(=O)oc2c(CN(C)C)c(O)c(Cl)cc12	IC50	33 µM (active)
O=C(Cc1ccsc1-c1ccccc1)NO	IC50	10.4 µM (active)

Required: IC50, one value per molecule below.
1. CC(=O)Oc1ccc2c(C)c(CC(C)O)c(=O)oc2c1 (configuration not stated)
2. O=C1Nc2ccccc2S/C1=C/NCc1ccccc1Cl

1. 62.4 µM (active)
2. 5.63 µM (active)

====

study system: Coagulation factor XII (Homo sapiens);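 note: activated factor XIIa alpha cleaving a fluorogenic AMC peptide substrate; inhibitor potency from loss of enzyme activity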
Sequence (P00748 20-372 limits assumed): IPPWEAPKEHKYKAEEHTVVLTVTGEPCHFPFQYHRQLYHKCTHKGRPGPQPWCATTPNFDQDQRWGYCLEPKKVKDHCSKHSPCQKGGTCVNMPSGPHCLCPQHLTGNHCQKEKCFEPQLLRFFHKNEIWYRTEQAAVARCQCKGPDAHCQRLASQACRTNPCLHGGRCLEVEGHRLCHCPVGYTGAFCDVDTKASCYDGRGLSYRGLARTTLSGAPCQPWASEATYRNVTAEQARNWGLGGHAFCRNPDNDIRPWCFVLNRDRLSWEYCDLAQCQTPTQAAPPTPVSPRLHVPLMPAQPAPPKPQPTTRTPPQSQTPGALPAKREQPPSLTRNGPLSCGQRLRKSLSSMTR
Sequence (P00748 373-615 limits assumed): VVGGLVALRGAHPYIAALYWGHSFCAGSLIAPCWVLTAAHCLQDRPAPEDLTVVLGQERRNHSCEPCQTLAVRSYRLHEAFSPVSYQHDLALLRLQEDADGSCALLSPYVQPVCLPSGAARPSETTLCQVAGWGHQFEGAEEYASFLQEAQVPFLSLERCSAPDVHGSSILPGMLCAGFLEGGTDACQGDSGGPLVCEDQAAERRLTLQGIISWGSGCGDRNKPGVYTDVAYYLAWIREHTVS
Format: functional
Activity calls are given as the source filed them.
So I've got a bunch of compounds here, and I need their IC50 values.

Below: 3 compounds and their reported IC50.
chem smiles	recorded metric	obs value
COCCNC(=O)CSc1nnc2c(Cl)cc(Cl)cn12	IC50	> 50 µM (inactive)
Cn1c2c(c3ccccc31)CCSC2=O	IC50	> 50 µM (inactive)
Fc1cc(F)c2nc(N3CCCC3)sc2c1	IC50	> 50 µM (inactive)

Attention now shifts to the item below.
Requested field: IC50. Item: "COc1ccc(C2N(c3ccccc3)CCN2c2ccccc2)cc1O"
> 50 µM (inactive)

Cited source for all entries: ChEMBL document CHEMBL1201862
